Below, each entry is listed with its recorded pIC50.
Biological target: human TLR9 (Homo sapiens, UniProt Q9NR96)
Sequence (Q9NR96 26-1032): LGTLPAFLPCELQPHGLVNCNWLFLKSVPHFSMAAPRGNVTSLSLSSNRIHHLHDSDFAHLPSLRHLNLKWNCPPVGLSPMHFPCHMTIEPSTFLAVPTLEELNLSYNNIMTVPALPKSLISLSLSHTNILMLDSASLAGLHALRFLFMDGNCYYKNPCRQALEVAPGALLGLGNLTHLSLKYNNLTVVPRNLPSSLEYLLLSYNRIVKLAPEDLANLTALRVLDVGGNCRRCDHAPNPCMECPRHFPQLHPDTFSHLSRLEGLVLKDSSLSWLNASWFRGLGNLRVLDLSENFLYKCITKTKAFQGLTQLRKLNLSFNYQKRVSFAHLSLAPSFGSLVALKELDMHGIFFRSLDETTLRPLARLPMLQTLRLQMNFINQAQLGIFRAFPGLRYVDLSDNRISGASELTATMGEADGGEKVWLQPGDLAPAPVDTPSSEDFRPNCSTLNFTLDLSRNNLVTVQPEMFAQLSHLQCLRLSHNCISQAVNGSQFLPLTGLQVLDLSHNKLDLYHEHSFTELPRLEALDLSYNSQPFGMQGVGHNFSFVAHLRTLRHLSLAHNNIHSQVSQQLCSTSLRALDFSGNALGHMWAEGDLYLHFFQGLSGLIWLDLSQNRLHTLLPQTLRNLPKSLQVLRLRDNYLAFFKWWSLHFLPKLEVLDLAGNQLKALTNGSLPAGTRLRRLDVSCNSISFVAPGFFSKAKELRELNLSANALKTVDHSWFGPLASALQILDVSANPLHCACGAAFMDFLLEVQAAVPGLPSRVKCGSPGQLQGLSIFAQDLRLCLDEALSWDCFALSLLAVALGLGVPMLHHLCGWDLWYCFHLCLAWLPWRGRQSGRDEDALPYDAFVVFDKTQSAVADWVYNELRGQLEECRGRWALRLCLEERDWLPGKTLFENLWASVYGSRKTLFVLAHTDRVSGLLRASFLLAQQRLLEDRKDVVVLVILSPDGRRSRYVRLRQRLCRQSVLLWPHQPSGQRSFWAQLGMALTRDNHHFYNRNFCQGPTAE
Assay: TLR9 inhibition reporter assay (HEK-Blue cells, SEAP reporter, ODN2006 stimulation)
Settings: HEK-Blue cells overexpressing human TLR9, SEAP reporter, ODN2006 5 nM
Source text: TLR7/8/9 Inhibition Reporter Assays HEK-Blue™-cells (Invivogen) overexpressing human TLR7, TLR8 or TLR9 receptors were used for screening inhibitors of these receptors using an inducible SEAP (secreted embryonic alkaline phosphatase) reporter gene under the control of the IFN-β minimal promoter fused to five NF-κB and AP-1-binding sites. […]
Convention used: pIC50 is expressed as -log10 of the molar concentration.

// pIC50 lookup, key: COc1cc(-c2[nH]c3ccc(C4CCCNC4)cc3c2C(C)C)cn2ncnc12 (single isomer, unassigned) [Example 183]
5.33

// pIC50 lookup, key: CNCC(=O)NC1(C)CCC(c2ccc3[nH]c(-c4cc(OC)c5ncnn5c4)c(C(C)C)c3c2)CC1 (stereo not drawn) [Example 155]
5.43

// pIC50 lookup, key: CCN(C)C1CCC(c2ccc3[nH]c(-c4cc(C)c5ncnn5c4)c(C(C)C)c3c2)CC1 (stereo not drawn) [Example 63]
5.23
